Reported pKi by item:
Target: hMAO-B (Homo sapiens)
Sequence (P27338 1-520): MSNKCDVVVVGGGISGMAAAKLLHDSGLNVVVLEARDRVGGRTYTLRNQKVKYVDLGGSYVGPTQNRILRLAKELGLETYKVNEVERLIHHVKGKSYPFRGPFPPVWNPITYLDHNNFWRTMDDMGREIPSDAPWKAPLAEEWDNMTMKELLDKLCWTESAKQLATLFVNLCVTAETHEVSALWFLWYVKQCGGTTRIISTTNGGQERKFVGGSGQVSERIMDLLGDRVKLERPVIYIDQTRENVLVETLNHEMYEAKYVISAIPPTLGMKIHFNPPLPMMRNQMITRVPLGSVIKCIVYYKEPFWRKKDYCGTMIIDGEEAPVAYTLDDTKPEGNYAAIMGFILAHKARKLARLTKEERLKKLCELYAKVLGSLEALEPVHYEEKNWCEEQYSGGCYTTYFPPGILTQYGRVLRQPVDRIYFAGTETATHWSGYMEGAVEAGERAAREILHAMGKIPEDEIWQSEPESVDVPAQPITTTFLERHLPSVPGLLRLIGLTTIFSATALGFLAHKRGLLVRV
Notebook: values listed as pKi are -log10 of the concentration (mol/L).

# molecule, reported.property, test.value
data = [
    ("Nc1cccc(-c2csc(N/N=C/c3cccs3)n2)c1 [Compound 37]", "pKi", 5.74),
]

In the following, a different molecule is considered.
Task item: I'd like to know its pKi. The molecule in question is CC(=NNc1nc(-c2cccc([N+](=O)[O-])c2)cs1)c1cccs1 [Compound 4]
Reply: 8.59
